Source listed as paper PMC7506137.

# test-protocol: Plasma exposure (dried blood spot) after single oral dose
# Type: in vivo
# condition-summary: male, Sprague Dawley, rat, whole blood (dried blood spot), po, 0.03 mg/kg, oral 0.03 mg/kg, 4 h, dried blood spot, read-out: Concentration, individual animals
endpoint: concentration at 4 h (nM)
Give the value, in units of nM, as a plain number.

Measured concentration at 4 h, O=c1c2nnc(C3(C4CC4)CC3)n2c2c(n1CC1CC1)CCCC2 [BTTQ] : 31.6

---

# test-protocol: Plasma exposure (dried blood spot) after single oral dose
# Format: in vivo
# condition-summary: male, Sprague Dawley, rat, whole blood (dried blood spot), po, 0.03 mg/kg, oral 0.03 mg/kg, 4 h, FU 0.053, read-out: Unbound Concentration, individual animals
endpoint: concentration at 4 h (nM)
Give the value, in units of nM, as a plain number.

Measured concentration at 4 h, O=c1c2nnc(C3(C4CC4)CC3)n2c2c(n1CC1CC1)CCCC2 : 1.67

---

# test-protocol: Plasma exposure (dried blood spot) after single oral dose
# Format: in vivo
# condition-summary: male, Sprague Dawley, rat, whole blood (dried blood spot), po, 0.1 mg/kg, oral 0.1 mg/kg, 2 h, FU 0.053, read-out: Unbound Concentration, Mean
endpoint: concentration at 2 h (nM)
Give the value, in units of nM, as a plain number.

Measured concentration at 2 h, O=c1c2nnc(C3(C4CC4)CC3)n2c2c(n1CC1CC1)CCCC2 [BTTQ] : 10

---

# test-protocol: Plasma exposure (dried blood spot) after single oral dose
# Format: in vivo
# condition-summary: male, Sprague Dawley, rat, whole blood (dried blood spot), po, 0.3 mg/kg, oral 0.3 mg/kg, 6 h, FU 0.053, read-out: Unbound Concentration, individual animals
endpoint: concentration at 6 h (nM)
Give the value, in units of nM, as a plain number.

Measured concentration at 6 h, O=c1c2nnc(C3(C4CC4)CC3)n2c2c(n1CC1CC1)CCCC2 : 7.26

---

# system-name: Human PDE7B (Homo sapiens, UniProt Q9NP56)
# Sequence (Q9NP56 whole entry): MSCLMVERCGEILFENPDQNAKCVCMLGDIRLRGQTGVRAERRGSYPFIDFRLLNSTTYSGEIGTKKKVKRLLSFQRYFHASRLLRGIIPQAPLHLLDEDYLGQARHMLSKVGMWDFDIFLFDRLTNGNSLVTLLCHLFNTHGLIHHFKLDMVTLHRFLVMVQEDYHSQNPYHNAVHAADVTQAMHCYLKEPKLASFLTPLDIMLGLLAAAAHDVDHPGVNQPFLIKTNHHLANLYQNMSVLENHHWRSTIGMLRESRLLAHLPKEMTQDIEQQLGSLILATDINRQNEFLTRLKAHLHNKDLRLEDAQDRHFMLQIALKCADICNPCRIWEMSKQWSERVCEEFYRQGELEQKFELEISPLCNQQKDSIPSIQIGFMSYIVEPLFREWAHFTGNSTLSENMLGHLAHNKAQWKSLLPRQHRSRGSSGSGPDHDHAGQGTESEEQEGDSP
endpoint: IC50 (µM)
Give the value, in units of µM, as a plain number.

Measured IC50, O=c1c2nnc(C3(C4CC4)CC3)n2c2c(n1CC1CC1)CCCC2 [BTTQ] : 1.6

---

# test-protocol: Plasma exposure (dried blood spot) after single oral dose
# Format: in vivo
# condition-summary: male, Sprague Dawley, rat, whole blood (dried blood spot), po, 3 mg/kg, oral 3 mg/kg, 2 h, FU 0.053, read-out: Unbound Concentration, individual animals
endpoint: concentration at 2 h (nM)
Give the value, in units of nM, as a plain number.

Measured concentration at 2 h, O=c1c2nnc(C3(C4CC4)CC3)n2c2c(n1CC1CC1)CCCC2 : 166

---

# test-protocol: Plasma exposure (dried blood spot) after single oral dose
# Format: in vivo
# condition-summary: male, Sprague Dawley, rat, whole blood (dried blood spot), po, 1 mg/kg, oral 1 mg/kg, 4 h, dried blood spot, read-out: Concentration, Mean
# Method: Male Sprague Dawley rats at 6 to 7 weeks were dosed orally by p.o. gavage with different doses of BTTQ formulated in 1% hydroxyethlycellulose (Dow Corning, Midland, MI, United States) (w/v), 0.25% polysorbate 80 (Sigma-Aldrich, St. Louis, MO, United States) (v/v), and 0.05% antifoam (v/v; Dow Corning, Midland, MI, United States) in purified water. […]
endpoint: concentration at 4 h (nM)
Give the value, in units of nM, as a plain number.

Measured concentration at 4 h, O=c1c2nnc(C3(C4CC4)CC3)n2c2c(n1CC1CC1)CCCC2 : 1080
